Values from patent US20240366589A1

test system: absorption of sodium from the intestinal lumen; test: Inhibition of intestinal sodium absorption: urinary sodium (uNa) 16 h after single oral dose in rats; assay type: in vivo, rat; details: oral gavage, dose 10 mg/kg, 16 h post-dose
// reported Urine Na % of control per item

Task: Provide the documented Urine Na % of control with absorption of sodium from the intestinal lumen as the system for C/C(=C\c1cc(F)c(Oc2ccc(S(=O)(=O)NCCOCCOCCOCCNC(=O)NCCCCNC(=O)NCCOCCOCCOCCNS(=O)(=O)c3ccc(Oc4c(F)cc(/C=C(\C)C(=O)N=C(N)N)cc4F)cc3)cc2)c(F)c1)C(=O)N=C(N)N [compound 29]
Output: 92%

Task: Now the compound O=C(NCCOCCOCCNS(=O)(=O)c1ccc(O[C@H]2c3ccccc3C[C@@H]2N2CCCCC2)cc1)c1ccc(C(=O)NCCOCCOCCNS(=O)(=O)c2ccc(O[C@H]3c4ccccc4C[C@@H]3N3CCCCC3)cc2)cc1 [compound 100]
Output: 57%

Task: Now the compound CN1Cc2c(Cl)cc(Cl)cc2[C@H](c2cccc(S(=O)(=O)N(C)CCOCCOCCNC(=O)NCCCN(CCCNC(=O)NCCOCCOCCN(C)S(=O)(=O)c3cccc([C@@H]4CN(C)Cc5c(Cl)cc(Cl)cc54)c3)CCCNC(=O)NCCOCCOCCN(C)S(=O)(=O)c3cccc([C@@H]4CN(C)Cc5c(Cl)cc(Cl)cc54)c3)c2)C1 [compound 106]
Output: 20%

Task: Now the compound C/C(=C\c1cc(F)c(Oc2ccc(S(=O)(=O)NCCOCCOCCOCCNC(=O)NCCOCCOCCNC(=O)NCCOCCOCCOCCNS(=O)(=O)c3ccc(Oc4c(F)cc(/C=C(\C)C(=O)N=C(N)N)cc4F)cc3)cc2)c(F)c1)C(=O)N=C(N)N [compound 14]
Output: 51%

Task: Now the compound CN1Cc2c(Cl)cc(Cl)cc2[C@H](c2cccc(S(=O)(=O)NCCOCCOCCOCCNC(=O)CN(CC(=O)NCCOCCOCCOCCNS(=O)(=O)c3cccc([C@@H]4CN(C)Cc5c(Cl)cc(Cl)cc54)c3)CC(=O)NCCOCCOCCOCCNS(=O)(=O)c3cccc([C@@H]4CN(C)Cc5c(Cl)cc(Cl)cc54)c3)c2)C1 [compound 57]
Output: 25%

Task: Now the compound NCCOCCOCCOc1ccc(-c2nc(N=C(N)N)nc3ccc(Cl)cc23)cc1 [compound 11]
Output: 60%
